Target: N-acylethanolamine-hydrolyzing acid amidase (Homo sapiens, UniProt Q02083)
Sequence (Q02083 29-125 limits assumed): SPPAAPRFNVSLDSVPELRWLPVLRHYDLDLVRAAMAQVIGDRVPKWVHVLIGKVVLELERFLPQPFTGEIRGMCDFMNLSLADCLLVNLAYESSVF
Sequence (Q02083 126-359 limits assumed): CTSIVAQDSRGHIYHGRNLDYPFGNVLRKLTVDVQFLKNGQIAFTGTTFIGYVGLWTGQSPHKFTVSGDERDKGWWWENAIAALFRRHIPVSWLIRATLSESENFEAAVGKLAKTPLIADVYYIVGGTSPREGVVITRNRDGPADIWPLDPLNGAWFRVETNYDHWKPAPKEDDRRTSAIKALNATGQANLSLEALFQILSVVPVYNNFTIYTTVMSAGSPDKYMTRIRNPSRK
Assay: Inhibition of human recombinant His6-tagged NAAA expressed in HEK293 cells using 10-cis-heptadecenoylethanolamide as substrate after 30 mins by UPLC/MS analysis
parameter: IC50 (nM)

>>> value("C[C@@H]1OC(=O)[C@@H]1NC(=O)OCCCCCc1ccccc1")
7.3
>>> value("C[C@@H]1OC(=O)[C@@H]1NC(=O)CCCCCCc1ccccc1")
314
